read-out: Insulin-like growth factor-binding protein 1 (IGFBP1), IGFBP1 (gene 3484); assay: LTEA_HepaRG_IGFBP1: Life Technologies and Expression Analysis (LTEA) Assay for Insulin-like growth factor-binding protein 1 (IGFBP1) using HepaRG (AID 2283508); conditions: mRNA level, 48 h; actives raise or lower the signal
Activity calls are given as the source filed them. Rule for the calls: active = hit-call score of the fitted dose curve at least 0.9, where 1 is the maximum; inactive = score below 0.9.
API: response.call in active, inactive

Solved entries (count: 8):
molecule="CCOc1cc(C(C)(C)C)ccc1C1COC(c2c(F)cccc2F)=N1 (centres undefined)" category_label=inactive
molecule=O=C(Nc1ccccc1-c1ccc(Cl)cc1)c1cccnc1Cl category_label=inactive
molecule="CC(C)C1(C)N=C(c2ncccc2C(=O)O)NC1=O (centres undefined)" category_label=inactive
molecule=CSC(=O)c1c(C(F)F)nc(C(F)(F)F)c(C(=O)SC)c1CC(C)C category_label=active
molecule=CCNC(=O)NC(=O)C(C#N)=NOC category_label=inactive
molecule="COCC(=O)N(c1c(C)cccc1C)C(C)C(=O)OC (centres undefined)" category_label=inactive
molecule=Cc1cc(C)nc(Nc2ccccc2)n1 category_label=inactive
molecule=COP(=S)(OC)SCn1nnc2ccccc2c1=O category_label=inactive

Exercise: Entry CCOc1nc(C(Cl)(Cl)Cl)ns1 : call = ?
Key: active

----------
read-out: Alkaline Phosphatase, Placental (ALPP) gene, ALPP (gene 250); test: LTEA_HepaRG_ALPP: Life Technologies and Expression Analysis (LTEA) Assay for Alkaline Phosphatase, Placental (ALPP) gene using HepaRG (AID 2283468); settings: mRNA level, 48 h; actives raise or lower the signal
Activity calls are given as the source filed them. Rule for the calls: active = hit-call score of the fitted dose curve at least 0.9, where 1 is the maximum; inactive = score below 0.9.
API: response.call in active, inactive

Solved entries (count: 5):
compound="CCC(C)n1c(=O)[nH]c(C)c(Br)c1=O (centres undefined)" category_label=inactive
compound=CS(=O)(=O)c1ccc(C(=O)C2C(=O)CCCC2=O)c([N+](=O)[O-])c1 category_label=inactive
compound="CCNP(=S)(OC)O/C(C)=C/C(=O)OC(C)C (centres undefined)" category_label=inactive
compound="COCC(=O)N(c1c(C)cccc1C)C(C)C(=O)OC (centres undefined)" category_label=inactive
compound="CCCC(=NOCC)C1=C(O)CC(CC(C)SCC)CC1=O (centres undefined)" category_label=inactive

Exercise: Entry CC(C)N1C(=O)c2ccccc2NS1(=O)=O : call = ?
Key: inactive

Exercise: Entry COC(=O)N(C(=O)N1CO[C@@]2(C(=O)OC)Cc3cc(Cl)ccc3C2=N1)c1ccc(OC(F)(F)F)cc1 : call = ?
Key: inactive

Exercise: Entry C=CCOC(=O)C(C)(C)OC(=O)c1cc(-n2c(=O)cc(C(F)(F)F)n(C)c2=O)ccc1Cl : call = ?
Key: inactive

Exercise: Entry CC1(C)C(C=C(Cl)Cl)C1C(=O)OC(C#N)c1cccc(Oc2ccccc2)c1 (centres undefined) : call = ?
Key: inactive

Exercise: Entry COP(=S)(OC)SCn1nnc2ccccc2c1=O : call = ?
Key: inactive

Exercise: Entry CCOc1nc(F)cc2nc(S(=O)(=O)Nc3c(Cl)cccc3Cl)nn12 : call = ?
Key: inactive

Exercise: Entry CC1(C)C(C(=O)OC(C#N)c2cccc(Oc3ccccc3)c2)C1(C)C (centres undefined) : call = ?
Key: inactive

Exercise: Entry CCN(CC)C(=O)C(C)Oc1cccc2ccccc12 (centres undefined) : call = ?
Key: active

Exercise: Entry CO/N=C(/C1=NOCCO1)c1ccccc1Oc1ncnc(Oc2ccccc2Cl)c1F : call = ?
Key: active

Exercise: Entry CCOP(=S)(OCC)Oc1nc(Cl)n(C(C)C)n1 : call = ?
Key: inactive

----------
experiment: ATG_EGR_CIS: Attagene CIS-FACTORIAL HepG2 Assay for human Early Growth Response 1 (EGR1) (AID 2282938); settings: HepG2 Attagene CIS-FACTORIAL EGR reporter mRNA; actives raise or lower the signal
Calls of active or inactive are those of the source. Rule for the calls: active = hit-call score of the fitted dose curve at least 0.9, where 1 is the maximum; inactive = score below 0.9.
API: response.call in active, inactive

Solved entries (count: 3):
compound=CN/C(=N\[N+](=O)[O-])NCc1cnc(Cl)s1 category_label=inactive
compound=CO/N=C(/C1=NOCCO1)c1ccccc1Oc1ncnc(Oc2ccccc2Cl)c1F category_label=active
compound=N#Cc1c[nH]cc1-c1cccc2c1OC(F)(F)O2 category_label=inactive

Exercise: Entry Nc1c(Cl)c(F)nc(OCC(=O)O)c1Cl : call = ?
Key: inactive

Exercise: Entry CCNP(=S)(OC)O/C(C)=C/C(=O)OC(C)C (stereo not drawn) : call = ?
Key: inactive

Exercise: Entry CNC(=O)Oc1cccc2ccccc12 : call = ?
Key: inactive

----------
read-out: Macrophage colony-stimulating factor (MCSF), CSF1 (gene 1435); assay: BSK_CASM3C_MCSF: BioMAP Diversity Plus: CASM3C Assay for Macrophage colony-stimulating factor (MCSF) Biomarker Activity (AID 2283044); settings: primary human coronary artery smooth muscle cells; actives raise or lower the signal;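 note: M-CSF protein amount quantified by ELISA after 24 h exposure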
The source made the active and inactive calls. Rule for the calls: active = hit-call score of the fitted dose curve at least 0.9, where 1 is the maximum; inactive = score below 0.9.
Property Measured: outcome

compound=COC(=O)NC(=S)Nc1ccccc1NC(=S)NC(=O)OC result=inactive
compound=CCOc1nc(F)cc2nc(S(=O)(=O)Nc3c(Cl)cccc3Cl)nn12 result=inactive
compound="CCN(CC)C(=O)C(C)Oc1cccc2ccccc12 (stereo not drawn)" result=inactive

----------
read-out: Macrophage colony-stimulating factor (MCSF), CSF1 (gene 1435); experiment: BSK_hDFCGF_MCSF: BioMAP Diversity Plus: hDFCGF Assay for Macrophage colony-stimulating factor (MCSF) Biomarker Activity (AID 2283060); settings: primary human foreskin fibroblasts; actives raise or lower the signal
Active and inactive are the calls of the source. Rule for the calls: active = hit-call score of the fitted dose curve at least 0.9, where 1 is the maximum; inactive = score below 0.9.
API: response.call in active, inactive

Solved entries (count: 3):
molecule="COCC(=O)N(c1c(C)cccc1C)C(C)C(=O)OC (stereo not given)" category_label=inactive
molecule="O=C1C2CC=CCC2C(=O)N1SC(Cl)(Cl)Cl (stereo not given)" category_label=active
molecule="CCN(CC)C(=O)C(C)Oc1cccc2ccccc12 (stereo not given)" category_label=inactive

Exercise: Entry COP(=O)(OC)O/C(C)=C/C(=O)N(C)C : call = ?
Key: inactive

Exercise: Entry CCN(CC)c1nc(C)cc(OP(=S)(OC)OC)n1 : call = ?
Key: active

----------
read-out: HMG-CoA synthase (HMGCS2), HMGCS2 (gene 3158); assay: CLD_HMGCS2_24hr: CellzDirect (CLD) Gene Expression Assay for HMG-CoA synthase (HMGCS2) at 24 hours (AID 2283691)
Results filed as inconclusive are left out. Activity calls are given as the source filed them. The calls were made as follows: active = hit-call score of the fitted dose curve at least 0.9, where 1 is the maximum; inconclusive = response in the unintended direction; inactive = score below 0.9.
Property Measured: outcome

# example entries with known answers
compound=CN=C=S result=inactive
compound=CCNC(=O)NC(=O)C(C#N)=NOC result=inactive
compound=CC(C)N1C(=O)c2ccccc2NS1(=O)=O result=inactive
compound="CC1(C)C(C(=O)OC(C#N)c2cccc(Oc3ccccc3)c2)C1(C)C (stereo not given)" result=inactive

# evaluate next
Exercise: Sample N#CN=C1SCCN1Cc1ccc(Cl)nc1 — what was its outcome?
Key: inactive

----------
read-out: CYP2C8 (gene 1558); assay: LTEA_HepaRG_CYP2C8: Life Technologies and Expression Analysis (LTEA) Assay for CYP2C8 using HepaRG (AID 2283483); conditions: mRNA level, 48 h; actives raise or lower the signal
Activity calls are given as the source filed them. How the source made its calls: active means hit-call score of the fitted dose curve at least 0.9, where 1 is the maximum; inactive means score below 0.9.
API: response.call in true for active, false for inactive

compound=O=C(O)c1c(Cl)ccc2cc(Cl)cnc12 category_label=false
compound="COCC(=O)N(c1c(C)cccc1C)C(C)C(=O)OC (centres undefined)" category_label=false
compound=COC(=O)c1c(C(F)F)nc(C(F)(F)F)c(C2=NCCS2)c1CC(C)C category_label=true

Query compound follows.
Exercise: Entry CC(C)Oc1cccc(NC(=O)c2ccccc2C(F)(F)F)c1 : call = ?
Key: true

----------
target: human RAR-related Orphan Receptor beta (RORb), RORB (gene 6096) (UniProt Q92753); assay: ATG_RORb_TRANS: Attagene TRANS-FACTORIAL HepG2 Assay for human RAR-related Orphan Receptor beta (RORb) (AID 2283010)
Sequence (Q92753 whole entry, looked up): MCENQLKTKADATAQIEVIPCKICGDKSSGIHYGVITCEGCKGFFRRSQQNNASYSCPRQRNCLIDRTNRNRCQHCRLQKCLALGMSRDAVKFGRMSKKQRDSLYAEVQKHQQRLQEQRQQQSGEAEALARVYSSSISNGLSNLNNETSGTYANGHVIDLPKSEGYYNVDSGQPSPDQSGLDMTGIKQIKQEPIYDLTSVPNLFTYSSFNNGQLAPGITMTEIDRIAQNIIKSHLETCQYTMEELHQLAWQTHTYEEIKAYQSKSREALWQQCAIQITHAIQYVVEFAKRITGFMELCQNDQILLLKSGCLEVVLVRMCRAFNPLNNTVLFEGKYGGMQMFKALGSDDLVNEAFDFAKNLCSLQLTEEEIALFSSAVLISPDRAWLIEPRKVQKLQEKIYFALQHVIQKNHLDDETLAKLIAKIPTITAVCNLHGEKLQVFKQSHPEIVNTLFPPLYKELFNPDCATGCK
Results filed as inconclusive are left out. Active and inactive are the calls of the source. The calls were made as follows: active = hit-call score of the fitted dose curve at least 0.9, where 1 is the maximum; inconclusive = response in the unintended direction; inactive = score below 0.9.
Property Measured: outcome

# example entries with known answers
compound=CSC(=O)c1c(C(F)F)nc(C(F)(F)F)c(C(=O)SC)c1CC(C)C property_measured=outcome result=inactive
compound=COP(=S)(OC)Oc1ccc([N+](=O)[O-])c(C)c1 property_measured=outcome result=inactive
compound=CC1(C)CON(Cc2ccccc2Cl)C1=O property_measured=outcome result=inactive
compound="CCN(CC)C(=O)C(C)Oc1cccc2ccccc12 (configuration not stated)" property_measured=outcome result=inactive
compound=Cc1c(COC(=O)[C@@H]2[C@H](/C=C(\Cl)C(F)(F)F)C2(C)C)cccc1-c1ccccc1 property_measured=outcome result=inactive

Exercise: Sample CCNC(=O)NC(=O)C(C#N)=NOC — what was its outcome?
Key: inactive

Exercise: Sample CCC(C)n1c(=O)[nH]c(C)c(Br)c1=O (configuration not stated) — what was its outcome?
Key: inactive
